# Tested target: α2A receptors (Rattus norvegicus)
# Construct: from tissue; host or cells: rat cortex membranes
# Assay remarks: Binding of [3H]RX821002 to α2A receptors (rat cortex membranes)
Answer each item with its documented IC50.
Answer shape: numeric part, then the unit.

| Record smiles | Tested target | IC50 |
| --- | --- | --- |
| CCCCCN1CCN(c2ccccc2OC)CC1 | α2A receptors (Rattus norvegicus) | 2.51 µM |
| COc1ccc(CCN2CCN(c3ccccc3OC)CC2)cc1OC | α2A receptors (Rattus norvegicus) | 0.295 µM |

Attention now shifts to the item below.
Per the record, CCOc1ccccc1N1CCN(CCc2ccc(OC)c(OC)c2)CC1 has IC50 of 2 µM

====

# Tested target: muscarinic receptors
# Type: binding, rat
# Conditions used: Table 14
Record t whenever -log 1050 (M) is at 4 M or higher; record f when lower.

Worked set:
| Record smiles | Discrete label |
| --- | --- |
| CCCCCCN1CCN(c2ccccc2OC)CC1 | f |
| CCCCCCCN1CCN(c2ccccc2OC)CC1 | t |
| CCCCCCCCN1CCN(c2ccccc2OC)CC1 | t |
| COc1cccc(CCN2CCN(c3ccccc3OC)CC2)c1 | t |
| CCCCCN1CCN(c2ccccc2OC)CC1 | f |

Here is another molecule to look at.
API: above_or_equal(metric=-log 1050 (M), cutoff=4 M) for item CCOc1ccccc1N1CCN(CCc2ccc3c(c2)OCO3)CC1 t

====

# Tested target: α2A receptors (Rattus norvegicus)
# Construct: from tissue; host or cells: rat cortex membranes
# Sequence (P22909 1-465): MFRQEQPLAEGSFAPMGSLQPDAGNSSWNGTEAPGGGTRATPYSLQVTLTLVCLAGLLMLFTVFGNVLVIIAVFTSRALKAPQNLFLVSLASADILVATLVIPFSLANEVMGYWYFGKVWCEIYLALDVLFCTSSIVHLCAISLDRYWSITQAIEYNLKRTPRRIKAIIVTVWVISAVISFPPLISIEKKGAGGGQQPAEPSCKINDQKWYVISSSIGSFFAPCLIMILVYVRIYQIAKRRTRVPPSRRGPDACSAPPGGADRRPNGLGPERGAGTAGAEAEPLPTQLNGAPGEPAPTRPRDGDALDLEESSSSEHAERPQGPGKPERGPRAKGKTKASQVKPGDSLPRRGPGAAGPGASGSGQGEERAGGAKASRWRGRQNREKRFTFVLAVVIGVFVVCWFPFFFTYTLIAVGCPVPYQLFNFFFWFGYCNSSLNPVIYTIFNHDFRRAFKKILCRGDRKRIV
# Assay remarks: Binding of [3H]RX821002 to α2A receptors (rat cortex membranes)
Readout: Ki
Answer shape: numeric part, then the unit.

Example compounds with recorded Ki:
| Compound | Tested target | Ki |
| --- | --- | --- |
| CCCCCN1CCN(c2ccccc2OC)CC1 [LDT 65] | α2A receptors (Rattus norvegicus) | 1500 nM |
| CCOc1ccccc1N1CCN(CCc2ccc(OC)c(OC)c2)CC1 [LDT 245] | α2A receptors (Rattus norvegicus) | 160 nM |

Attention now shifts to the item below.
Per the record, COc1ccc(CCN2CCN(c3ccccc3OC)CC2)cc1OC [LDT 5] has Ki of 240 nM

====

# Tested target: 5-HT1A receptors (Rattus norvegicus)
# Construct: Intrinsic Activity at Native 5-HT1A Receptors; from tissue; host or cells: rat hippocampus membranes
# Sequence (P19327 whole entry): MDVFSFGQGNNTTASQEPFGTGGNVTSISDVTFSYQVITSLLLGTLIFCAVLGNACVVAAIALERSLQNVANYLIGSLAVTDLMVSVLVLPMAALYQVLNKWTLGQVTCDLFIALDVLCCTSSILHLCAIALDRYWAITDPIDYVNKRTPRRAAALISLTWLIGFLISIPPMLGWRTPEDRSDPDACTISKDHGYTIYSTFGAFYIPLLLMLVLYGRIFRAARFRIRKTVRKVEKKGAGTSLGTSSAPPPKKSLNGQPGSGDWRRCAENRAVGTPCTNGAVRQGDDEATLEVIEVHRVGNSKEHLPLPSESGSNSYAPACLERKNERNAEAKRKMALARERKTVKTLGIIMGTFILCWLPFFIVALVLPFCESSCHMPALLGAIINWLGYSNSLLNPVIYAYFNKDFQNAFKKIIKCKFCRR
# Assay remarks: Binding of [3H]-8-OH-DPAT to 5-HT1A receptors (rat hippocampus membranes)
# Conditions used: Table 8; Cheng-Prusoff; read-out: Ki
Readout: Ki (nM)
Answers are plain numbers, in nM.

Example compounds with recorded Ki:
| Record smiles | Unit label | Experimental result |
| --- | --- | --- |
| CCCN1CCN(c2ccccc2OC)CC1 | nM | 191 |
| CCN1CCN(c2ccccc2O)CC1 | nM | 316 |
| CCCCCCCN1CCN(c2ccccc2OC)CC1 | nM | 18 |
| CCN1CCN(c2ccccc2)CC1 | nM | 520 |
| CCN1CCN(c2ccccc2OC)CC1 | nM | 147 |

I need Ki for every entry listed below, if you could help.
1. CCCCCCCCN1CCN(c2ccccc2OC)CC1
2. CCOc1ccccc1N1CCN(CC)CC1
3. CCCCN1CCN(c2ccccc2OC)CC1
4. CCCCCCN1CCN(c2ccccc2OC)CC1

[9, 62, 84, 5]
